Data origin: paper PMC6222487

- target or system: BuChE (from equine serum) (Equus caballus)
- Sequence (P81908 whole entry): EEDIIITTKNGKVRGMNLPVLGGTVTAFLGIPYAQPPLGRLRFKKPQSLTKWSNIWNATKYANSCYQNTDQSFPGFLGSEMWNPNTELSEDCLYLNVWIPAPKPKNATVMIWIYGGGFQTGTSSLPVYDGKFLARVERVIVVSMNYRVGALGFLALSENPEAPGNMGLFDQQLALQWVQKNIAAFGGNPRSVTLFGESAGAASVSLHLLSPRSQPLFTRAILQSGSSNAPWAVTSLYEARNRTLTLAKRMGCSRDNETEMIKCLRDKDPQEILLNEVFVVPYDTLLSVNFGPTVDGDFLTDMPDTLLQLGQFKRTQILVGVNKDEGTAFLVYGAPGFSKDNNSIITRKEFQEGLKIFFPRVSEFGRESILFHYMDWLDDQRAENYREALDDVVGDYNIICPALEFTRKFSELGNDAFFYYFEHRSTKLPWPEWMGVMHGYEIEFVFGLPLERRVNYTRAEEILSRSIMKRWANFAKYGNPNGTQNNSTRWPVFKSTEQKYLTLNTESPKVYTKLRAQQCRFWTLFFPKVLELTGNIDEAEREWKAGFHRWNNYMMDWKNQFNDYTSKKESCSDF
- test method notes: biochemical
- test parameters: mean ± SEM
Consider the cut-off 4 mM. If the recorded IC50 is strictly smaller, the label is condition met; if not, the label is condition not met.

IN: Problem: For the compound Cc1nc(C)c(C(=O)OCCCOC(=O)c2cccc(F)c2)nc1C [Compound 8k] , is IC50 under 4 mM?
OUT: condition not met

IN: Problem: For the compound COc1cccc(C(=O)OCCCOC(=O)c2nc(C)c(C)nc2C)c1OC [Compound 8a] , is IC50 under 4 mM?
OUT: condition met

IN: Problem: For the compound COc1ccc(C(=O)OCCCOC(=O)c2nc(C)c(C)nc2C)c(OC)c1 [Compound 8c] , is IC50 under 4 mM?
OUT: condition met

IN: Problem: For the compound COc1cccc(OC)c1C(=O)OCCCOC(=O)c1nc(C)c(C)nc1C [Compound 8e] , is IC50 under 4 mM?
OUT: condition met

IN: Problem: For the compound Cc1nc(C)c(C(=O)OCCCOC(=O)c2cccc(Br)c2)nc1C [Compound 8g] , is IC50 under 4 mM?
OUT: condition not met

IN: Problem: For the compound COc1ccc(C(=O)OCCCOC(=O)c2nc(C)c(C)nc2C)cc1F [Compound 8j] , is IC50 under 4 mM?
OUT: condition met

IN: Problem: For the compound Cc1nc(C)c(C(=O)OCCCOC(=O)c2cccc(Cl)c2)nc1C [Compound 8f] , is IC50 under 4 mM?
OUT: condition met
